From: paper PMC10786891

Biological target: T1, EsCas13d, nuclease-dead (Eubacterium siraeum, UniProt B0MS50, R295A;H300A;R849A;H854A)
T1 sequence: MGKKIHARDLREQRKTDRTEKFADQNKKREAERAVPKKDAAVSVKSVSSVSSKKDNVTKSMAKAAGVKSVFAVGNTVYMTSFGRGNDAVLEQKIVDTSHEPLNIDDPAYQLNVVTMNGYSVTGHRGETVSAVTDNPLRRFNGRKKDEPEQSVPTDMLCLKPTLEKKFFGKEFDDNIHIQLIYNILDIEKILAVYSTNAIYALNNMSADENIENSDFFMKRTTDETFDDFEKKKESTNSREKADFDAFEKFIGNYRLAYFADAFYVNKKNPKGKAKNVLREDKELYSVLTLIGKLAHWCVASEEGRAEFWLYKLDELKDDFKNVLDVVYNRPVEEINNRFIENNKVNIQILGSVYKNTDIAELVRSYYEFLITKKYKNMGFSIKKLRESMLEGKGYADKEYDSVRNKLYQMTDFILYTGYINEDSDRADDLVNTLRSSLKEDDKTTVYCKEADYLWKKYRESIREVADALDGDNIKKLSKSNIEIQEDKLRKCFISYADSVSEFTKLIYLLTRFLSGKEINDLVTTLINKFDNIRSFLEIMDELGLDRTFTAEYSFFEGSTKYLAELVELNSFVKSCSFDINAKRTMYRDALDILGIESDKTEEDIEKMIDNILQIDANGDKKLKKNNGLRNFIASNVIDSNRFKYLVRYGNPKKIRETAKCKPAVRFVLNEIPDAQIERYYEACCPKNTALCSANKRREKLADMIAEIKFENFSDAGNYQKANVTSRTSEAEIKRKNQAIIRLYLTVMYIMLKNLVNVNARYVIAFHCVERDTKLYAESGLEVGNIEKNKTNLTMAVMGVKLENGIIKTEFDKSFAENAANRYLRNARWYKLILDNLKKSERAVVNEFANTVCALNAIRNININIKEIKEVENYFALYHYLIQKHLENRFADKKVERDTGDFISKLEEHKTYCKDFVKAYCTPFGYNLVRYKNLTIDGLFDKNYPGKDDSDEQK
Experiment: crRNA (strand 1, pre-loaded); Mg2+; 40 mM Tris-HCl pH 7.5, 150 mM NaCl, 6 mM MgCl2, 1 mM DTT, 0.1% Tween-20, 0.2 mg/ml BSA; 25 C; 10 min per concentration, then washed
Conditions: tags: His6-TwinStrep-SUMO cleaved; N-terminal SNAP kept (SNAP-Surface 488); label: 3' end held by stalled T7 RNA polymerase
Please go through the items and note down their pKd.
When answering, recall that pKd equals minus log10 of the concentration in mol/L, and write that number alone.

What value of pKd has been reported for the following binder? target 1 insG 3' of 8 (mixed) RNA 1: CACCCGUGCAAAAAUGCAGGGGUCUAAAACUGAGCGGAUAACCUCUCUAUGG RNA 2: GGGAAUGGAUCCACAUCUACGAAUUCGUACCAUAGAGAGGUUAUGCCGCUCACCGAGAUCGGAAGAGCACACGU
7.89

What value of pKd has been reported for the following binder? target 1 insA 3' of 10,insC 3' of 9 (mixed) RNA 1: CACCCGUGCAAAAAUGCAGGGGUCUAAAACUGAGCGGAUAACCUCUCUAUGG RNA 2: GGGAAUGGAUCCACAUCUACGAAUUCGUACCAUAGAGAGGUUAACUCCGCUCACCGAGAUCGGAAGAGCACACGU
7.84

What value of pKd has been reported for the following binder? target 1 insU 3' of 15,insG 3' of 6 (mixed) RNA 1: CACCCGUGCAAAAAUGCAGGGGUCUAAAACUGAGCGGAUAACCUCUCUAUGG RNA 2: GGGAAUGGAUCCACAUCUACGAAUUCGUACCAUAGAGUAGGUUAUCCGGCUCACCGAGAUCGGAAGAGCACACGU
7.83

What value of pKd has been reported for the following binder? target 1 insA 3' of 21,insG 3' of 4 (mixed) RNA 1: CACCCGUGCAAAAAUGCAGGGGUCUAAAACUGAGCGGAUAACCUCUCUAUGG RNA 2: GGGAAUGGAUCCACAUCUACGAAUUCGUACCAAUAGAGAGGUUAUCCGCGUCACCGAGAUCGGAAGAGCACACGU
7.84

What value of pKd has been reported for the following binder? target 2 MT 5'PFS GUC 3'PFS AGG (mixed) RNA 1: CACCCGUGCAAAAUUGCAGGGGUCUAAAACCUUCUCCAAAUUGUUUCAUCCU RNA 2: GGGAAUGGAUCCACAUCUACGAAUUCGUCAGGAUGAAACAAUUUGGAGAAGAGGAGAUCGGAAGAGCACACGU
7.82

What value of pKd has been reported for the following binder? target 1 C6A,G12A (mixed) RNA 1: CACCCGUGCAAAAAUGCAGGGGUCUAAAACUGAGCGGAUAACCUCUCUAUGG RNA 2: GGGAAUGGAUCCACAUCUACGAAUUCGUACCAUAGAGAGAUUAUCAGCUCACCGAGAUCGGAAGAGCACACGU
8.15
